Origin of the recorded values: PubChem BioAssay

- Test system: glycogen synthase kinase-3 (GSK3A per assay name; protocol says GSK3B)
- method: GSK3 binders on small-molecule microarrays, primary screen, biochemical, small-molecule microarray, 635 nm fluorescence, GSK3A (AID 1103); note: the record names both GSK3A and GSK3B
- conditions: small-molecule microarray binding, fluorescence 635 nm; higher = more signal
measurementType: composite z-score
Answer as a number with no unit attached.

Sample records with composite z-score:
- compound: "CN1C(=O)C2C=CC(C(O)c3ccccc3)N(N(c3ccccc3)c3ccccc3)C2C1=O (stereo not given)"
  systemUnderTest: "glycogen synthase kinase-3 (GSK3A per assay name; protocol says GSK3B)"
  resultValue: -0.372
- compound: "COCCOC(=O)N1C(=O)[C@@]2(c3cc(C#CC4(O)CCCCCC4)ccc31)[C@H](c1ccccc1OCCO)N1[C@H](c3ccccc3)[C@H](c3ccccc3)OC(=O)[C@H]1[C@@H]2C(=O)N1CCN(c2ncccn2)CC1"
  systemUnderTest: "glycogen synthase kinase-3 (GSK3A per assay name; protocol says GSK3B)"
  resultValue: 1.03
- compound: "CC(C)N1C(=O)c2ccccc2[C@](C)(C(=O)NCCN2CCOCC2)[C@@H]1c1ccc(CO)cc1"
  systemUnderTest: "glycogen synthase kinase-3 (GSK3A per assay name; protocol says GSK3B)"
  resultValue: -0.608

Req: Which composite z-score is reported for this compound? C=C[C@H](CO)NS(=O)(=O)c1ccc(Br)cc1
Resp: 0.526

Req: Which composite z-score is reported for this compound? CC(=O)NCCCC[C@@H]1NC(=O)[C@H]2C[C@@H](C(=O)NCCCCCCNC(=O)CS)[C@@H](c3ccc(O)cc3)N2C1=O
Resp: 0.0703

Req: Which composite z-score is reported for this compound? CCCC[C@@H]1C[C@H]1[C@@H](NC(=O)c1cccs1)c1ccc(-c2ccccc2)cc1
Resp: -0.595

Req: Which composite z-score is reported for this compound? CC(C)N1C(=O)[C@@]2(Cc3ccccc31)c1ccccc1C(=O)N(Cc1ccccc1Cl)[C@H]2c1ccc(CO)cc1
Resp: -1.24

====

- method: small-molecule microarray binders of probe aNog, primary screen, biochemical, biotinylated probe, 635/667 nm fluorescence (AID 1115);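 note: probe is biotinylated aNog protein used at 0.15 µg/mL for 1 h at 4 C; z-score combines 667 nm fluorescence of each spot with its signal to noise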
- conditions: higher = more signal
measurementType: composite z-score
Answer as a number with no unit attached.

- compound: "CCc1cccc(NC(=O)O[C@H]2[C@H](OC(=O)Nc3ccccc3-c3ccccc3)[C@@H](OC(=O)Nc3ccccc3-c3ccccc3)[C@@H](OC)O[C@@H]2CO)c1"
  composite z-score: 0.572
- compound: "COCCOC(=O)N1C(=O)[C@@]2(c3cc(C#CCC(C(=O)OC)C(=O)OC)ccc31)[C@H](c1ccccc1OCCO)N1[C@H](c3ccccc3)[C@H](c3ccccc3)OC(=O)[C@H]1[C@@H]2C(=O)NC[C@H](O)c1ccccc1"
  composite z-score: 0.237
- compound: "C=C(C(=O)CC[C@@H](OC(=O)c1cccnc1)c1ccccc1OCCO)C(C)C"
  composite z-score: -0.247
- compound: "COc1ccccc1CN1C(=O)c2ccccc2[C@@]2(Cc3ccccc3N(CC(C)C)C2=O)[C@@H]1c1ccc(CO)cc1"
  composite z-score: -0.175
- compound: "O[C@@H](Cc1ccccc1)[C@H]1C2C=CCCC=C2CN1Cc1cccc(Cl)c1 (stereo partly drawn)"
  composite z-score: 0.277

Req: Which composite z-score is reported for this compound? C=C(CCCC)C(=O)CC[C@@H](OC(=O)c1ccccc1-c1ccccc1C(=O)O)c1ccc(OCCO)cc1
Resp: 0.094

Req: Which composite z-score is reported for this compound? COc1ccc([Si](C)(C)[C@H]2[C@H](CCO)O[C@@]3(C(=O)N(Cc4ccc(N(C=O)c5ccccc5)cc4)c4ccccc43)[C@@H]2C)cc1
Resp: -0.14

Req: Which composite z-score is reported for this compound? CCOC(=O)C[C@H]1[C@H](OC(=O)c2ccc(-c3ccccc3)cc2)[C@@H](NC(=O)Cc2ccc(OC)cc2)c2cc(OCCCO)ccc2N1C(=O)c1ccccc1
Resp: -0.306

Req: Which composite z-score is reported for this compound? C=CCOC(=O)[C@H]1[C@@H]2C(=O)O[C@@H](c3ccccc3)[C@@H](c3ccccc3)N2[C@@H](c2ccc(OCCOC(=O)[C@@H]3C[C@@H]4C(=O)N[C@@H](CCCCNC(C)=O)C(=O)N4[C@@H]3c3ccc(O)cc3)cc2)[C@]12C(=O)Nc1ccccc12
Resp: 0.45

Req: Which composite z-score is reported for this compound? COC(=O)[C@@]1(Cc2ccc(OC)cc2)[C@H]2c3cc(C(=O)N4CCCC4)n(Cc4ccc(O)c(OC)c4)c3C[C@H]2CN1C(=O)c1ccccc1
Resp: 2.35

Req: Which composite z-score is reported for this compound? C[N+](C)(C)CCCCCCNC(=O)[C@@H]1C[C@@H]2C(=O)N[C@@H](Cc3ccccc3)C(=O)N2[C@@H]1c1cccc(OCCO)c1
Resp: -0.364

Req: Which composite z-score is reported for this compound? O=C1C[C@@](C(=O)NC2CC2)(c2ccc([N+](=O)[O-])cc2)[C@@H](c2ccc(CO)cc2I)N1C1CCCCC1
Resp: 0.217

Req: Which composite z-score is reported for this compound? COc1cc2c(cc1O)C(C1CC1)N(Cc1sc3ccccc3c1Cl)CC2 (stereo not drawn)
Resp: 0.173
